- tgt: SARS-CoV-2 3CLP (Severe acute respiratory syndrome coronavirus 2)
- method-summary: SARS-CoV-2 3CLP inhibition, FRET-based cleavage assay
- Format: biochemical
- condition: 80 nM SARS-CoV-2 3CLP, 100 μM substrate, 37° C., 10 min incubation, pH 7.8; read-out: 3CL Protease IC50
outcome-measure: pIC50
pIC50 is a log-scale quantity: -log10 of the concentration expressed in molar.

Some compounds with known pIC50 results, for comparison:
CC(C)(C)C[C@H](NC(=O)[C@H]1Cc2ccccc2N1C(=O)OCc1ccccc1)C(=O)N[C@H](C#N)C[C@@H]1CCCNC1=O :: 6.74
CC(C)C[C@H](NC(=O)[C@H]1CCCO1)C(=O)N[C@H](C#N)C[C@@H]1CCCNC1=O :: 6.15

Moving on to the next compound.
Param item: `COc1cccc2[nH]c(C(=O)N[C@@H](CC(C)C)C(=O)N[C@@H](C[C@@H]3CCNC3=O)C(=O)COC(=O)c3c(C(F)(F)F)cccc3C(F)(F)F)cc12` ; param system: SARS-CoV-2 3CLP (Severe acute respiratory syndrome coronavirus 2); output pIC50: 7.74

----------
- tgt: SARS-CoV-2 3CLP (Severe acute respiratory syndrome coronavirus 2)
- method-summary: SARS-CoV-2 3CLP inhibition, FRET-based cleavage assay
- Type: biochemical
- condition: 80 nM SARS-CoV-2 3CLP, 100 μM substrate, 37° C., 10 min incubation, pH 7.8; read-out: 3CL Protease IC50
pIC50: −log10 of the molar value.
Could you label it label 1 if measured pIC50 is 7 or higher, and label 0 otherwise?

Use the examples below as a reference point.
CC(C)C[C@H](NC(=O)c1cc2c3c(ccc2[nH]1)CCO3)C(=O)N[C@H](C#N)C[C@@H]1CCCNC1=O :: label 1
COc1cccc2[nH]c(C(=O)N[C@@H](CC(C)C)C(=O)N[C@@H](C[C@@H]3CCCNC3=O)C(=O)COC(=O)C3(C(F)(F)F)CC3)cc12 :: label 1
CC(C)C[C@H](NC(=O)c1cc2ccccc2o1)C(=O)N[C@H](C#N)C[C@@H]1CCCNC1=O :: label 0
CC(C)C[C@H](NC[C@@H]1CCCO1)C(=O)N[C@H](C#N)C[C@@H]1CCCNC1=O :: label 0
COc1cccc2[nH]c(C(=O)N[C@@H](CC(C)C)C(=O)N[C@@H](C[C@@H]3CCCNC3=O)C(=O)COC(=O)c3cnc(C)cc3C)cc12 :: label 1

Incoming: Item `COc1cccc2[nH]c(C(=O)N[C@@H](CC(C)C)C(=O)N[C@@H](C[C@@H]3CCCNC3=O)C(=O)COC(=O)C3(C#N)CCCC3)cc12` with pIC50 of 7 or above?
Outgoing: label 1

----------
Recorded pEC50, one value per entry.
- Tested on: SARS-CoV-2
- method-summary: SARS-CoV-2 in vitro plaque reduction assay in Vero E6 cells
- Type: cell-based
- condition: Severe acute respiratory syndrome coronavirus 2, Vero C1008, MOI 0.0001 pfu/cell, plaques counted after 48 h, >5 μM = did not reduce plaque numbers by half at 10 μM, read-out: SARS-CoV-2 Antiviral EC50
pEC50: −log10 of the molar value.

[2H]C1([2H])CC[C@@H](C[C@@H](C#N)NC(=O)[C@H](CC(C)(C)C)NC(=O)c2cc3c(OC)cccc3[nH]2)C(=O)N1 :: < 5.30
COc1cccc2[nH]c(C(=O)N[C@@H](CC(C)C)C(=O)N[C@@H](C[C@@H]3CCCNC3=O)C(=O)COC(=O)c3sc(C)nc3C(F)(F)F)cc12 :: < 5.30

Moving on to the next molecule.
Value of measured pEC50 for the entry `COc1cccc2[nH]c(C(=O)N[C@@H](CC(C)C)C(=O)N[C@H](C#N)C[C@@H]3CCNC3=O)cc12` : < 5.30

Where these numbers come from: patent US20220204476A1
